The measured values listed here are drawn from ChEMBL document CHEMBL1147639.

method: Relative inhibition of bovine heart PDE1 and human platelet PDE5
Collected Selectivity ratio values appear next to each entry.

Example entries begin here.
>>> print(df.to_string())
                                        mol  measurement
0   COc1ccc(CNc2c(CO)cnc3ccc(C#N)cc23)cc1Cl     > 100000
1       COc1ccc(CNc2ccnc3ccc(C#N)cc23)cc1Cl         6400
2  CCc1cc(C#N)cc2c(NCc3ccc(OC)c(Cl)c3)c(CO)cnc12      > 1e+06
3  CCOC(=O)c1cnc2c(CC)cc(C#N)cc2c1NCc1ccc(OC)c(Cl)c1     > 100000
4  CCOC(=O)c1cnc2cc(C(F)(F)F)ccc2c1NCc1ccc(OC)c(Cl)c1        > 310
5  CCOC(=O)c1cnc2ccc(C(F)(F)F)cc2c1NCc1ccc(OC)c(Cl)c1        > 680

Turning now to a further record.
Lookup: Tell me measured Selectivity ratio for COc1ccc(CNc2c(C(=O)NCc3ccccn3)cnc3ccc(C#N)cc23)cc1Cl please.
Found: > 100000
